- Tested on: A549
- ASSAY_COMMENT: NCI tumour cell line growth inhibition, 48 h
Activity calls are given as the source filed them. Cut-off read from the data, not from the text of the source: active = GI50 up to about 1.1 µM and inactive = higher.
Classes used: TRUE for active, FALSE for inactive

# MOLECULE, ASSIGNED_LABEL
rows = [
    ("FC(F)(F)c1cc(Cl)cnc1N/N=C(/c1ccccc1)c1ccccn1", "FALSE"),
    ("CCOC(=O)[C@@H]1ON2O[C@@H](OC3CCCC3(c3ccccc3)c3ccccc3)C[C@H]3OC(=O)[C@@H]1C32 (some centres not stated)", "TRUE"),
    ("CC(CCC[C@H](C)CO)[C@H]1[C@@H](O)C(O)C2[C@@H]3C[C@@H](O)C4(O)C[C@@H](O)CC[C@]4(C)C3CC[C@@]21C (some centres not stated)", "FALSE"),
    ("CC1=NN(c2nc(N)nc(/C(C#N)=C\\c3ccc(-c4ccc([N+](=O)[O-])cc4)o3)n2)C(C)(C)C1", "FALSE"),
    ("NC(=O)COc1c(Br)cc(Br)cc1Br", "FALSE"),
    ("COC1C(O)CC(OC2C(C)OC(Oc3cc(O)c4c(O)c5c(cc4c3)C[C@@H]([C@H](OC)C(=O)[C@@H](O)[C@@H](C)O)[C@H](OC3CC(OC4CC(OC6CC(C)(O)C(O)C(C)O6)C(O)C(C)O4)C(O)C(C)O3)C5=O)CC2OC(C)=O)OC1C (some centres not stated)", "FALSE"),
    ("COc1c(Cl)ccc(Cl)c1C(=O)NNC(=O)c1c(Cl)c(Cl)c(Cl)c(Cl)c1-c1nc2cc(C(=O)c3ccccc3)ccc2[nH]1", "FALSE"),
    ("c1ccc(C[N+]23C(CC[C@H]2c2ccccc2)CC[C@H]3c2ccccc2)cc1 (some centres not stated)", "FALSE"),
    ("O=C(O)c1ccc(/N=C(\\C(=N\\c2ccc(C(=O)O)cc2)c2ccccc2)c2ccccc2)cc1", "FALSE"),
    ("CCOC(=O)C1=CN2C(=N[C@H]3CCCC[C@@H]32)NC1=O", "FALSE"),
    ("CCNC(=O)O/N=C1\\CCC2[C@@H]3CC=C4C[C@@H](OC(=O)NCC)CC[C@]4(C)C3CC[C@]12C (some centres not stated)", "FALSE"),
    ("COC1CCCCN1C(=O)c1ccccc1 (configuration not stated)", "FALSE"),
]

###

- Test system: SK-MEL-2
- ASSAY_COMMENT: NCI tumour cell line growth inhibition, 48 h
The source made the active and inactive calls. Cut-off read from the data, not from the text of the source: active = GI50 up to about 1.1 µM and inactive = higher.
Classes used: Yes = active, No = inactive

# MOLECULE, ASSAY_SYSTEM, ASSIGNED_LABEL
records = [
    ("Cc1cc(S(=O)(=O)Nc2nc(N)nc(N(C)C)n2)c(SC(C(=O)O)c2ccccc2)cc1Cl (stereo not given)", "SK-MEL-2", "No"),
    ("CC(C)C[C@H](NC(=O)[C@H](Cc1cccc2ccccc12)NC(=O)N1CCOCC1)B(O)O", "SK-MEL-2", "Yes"),
    ("Nc1c(S(=O)(=O)O)cc(Nc2cccc(S(=O)(=O)/C=C/S(=O)(=O)O)c2)c2c1C(=O)c1ccccc1C2=O", "SK-MEL-2", "No"),
    ("C=Nc1ccc([N+](=O)[O-])cc1", "SK-MEL-2", "No"),
    ("CC[C@]12C=CCN3CC[C@@]4(c5cc(N=O)c(OC)cc5N(C)[C@H]4[C@@](O)(C(=O)OC)[C@@H]1OC(C)=O)[C@@H]32", "SK-MEL-2", "No"),
    ("NC(=O)C1CCN(Cc2c(Cl)c(Cl)c(CN3CCC(C(N)=O)CC3)c(Cl)c2Cl)CC1", "SK-MEL-2", "No"),
    ("CC[N+]1(C)CCC(O)(c2ccc(Cl)c(Cl)c2)C(C(=O)c2ccc(Cl)c(Cl)c2)C1 (stereo not given)", "SK-MEL-2", "No"),
    ("CC1(C)C=C(S(=O)(=O)c2ccccc2)Oc2ccccc2O1", "SK-MEL-2", "No"),
    ("CC(=O)OCSc1ncnc2c1ncn2CN1CCOCC1", "SK-MEL-2", "No"),
    ("[O-][n+]1onc2c1CCC(=N\\O)/C2=N/Nc1ccccc1", "SK-MEL-2", "No"),
]

###

- Test system: UACC-257
- ASSAY_COMMENT: NCI tumour cell line growth inhibition, 48 h
Active and inactive are the calls of the source. No stated cut-off is given here; in the data, active = GI50 up to about 1.1 µM and inactive = higher.
Classes used: label 1 = active, label 0 = inactive

# MOLECULE, ASSIGNED_LABEL
measured = [
    ("CC1=NN(c2nc(N)nc(/C(C#N)=C\\c3ccc(-c4ccc([N+](=O)[O-])cc4)o3)n2)C(C)(C)C1", "label 0"),
    ("COc1c(O)c(O)c2c(c1O)C(=O)c1cc(C)cc(O)c1C2=O", "label 0"),
    ("COc1ccc(Nc2nc(N)c(C(=O)c3ccc(Cl)cc3)s2)cc1", "label 0"),
    ("CN(Cc1ccccc1)C(=O)c1ccccc1C(=O)O", "label 0"),
    ("CO/N=C1/c2sccc2[C@H](NC(=O)CNC(=O)OC(C)(C)C)[C@@H]1O", "label 0"),
    ("COc1ccc(/C=N/n2c(Cc3ccccc3)n[nH]c2=O)cc1", "label 0"),
    ("C=CC[C@H](O)[C@@](NC(=O)OCc1ccccc1)(Sc1ccc(C)cc1)C(F)(F)F", "label 0"),
    ("COC1C=C(NCC2(CO)CCC2)N=C(N)N1 (configuration not stated)", "label 0"),
    ("CCOC(=O)C1=C(C)N(c2ccc(C)cc2)C2(O)C=CC(O)=C3C(=O)c4ccccc4C(=O)C312 (configuration not stated)", "label 0"),
    ("Cc1c(-c2coc(-c3ccc(Cl)cc3)n2)c(=O)n(-c2ccccc2)n1C", "label 0"),
    ("Cc1nc2sccn2c1C(=O)OCCOCCOCCOCCOC(=O)c1c(C)nc2sccn12", "label 0"),
    ("N#Cc1nc(-c2ccc(-c3nc(C#N)c(N)o3)cc2)oc1N", "label 0"),
    ("CCC1(O)C=CC(=O)C=C1", "label 0"),
    ("CCC12C=CCN3CCC4(C(=C(C(=O)OC)[C@@H]1O)Nc1ccccc14)C32 (some centres not stated)", "label 1"),
    ("O=C(NCCc1ccc(F)cc1)c1cc(/C=C/c2cc(O)ccc2O)ccc1O", "label 0"),
    ("CCCCI(O)OS(=O)(=O)c1ccc(C)cc1", "label 0"),
    ("CCCCCCCCCCCCCCCC/C(C(=O)OC)=C(/O)C(=O)OCC", "label 0"),
    ("C/C=C\\C(CC(=O)NCCc1cn(C(=O)OCc2ccccc2)c2ccccc12)CC(=O)OC (configuration not stated)", "label 0"),
    ("Cc1ccc([S+]([O-])/C=C(\\NC(=O)OCc2ccccc2)C(F)(F)F)cc1 (configuration not stated)", "label 0"),
    ("C=Nc1ccc([N+](=O)[O-])cc1", "label 0"),
    ("C/C(=N/N(C=O)C[n+]1ccccc1)C(CN(CC(C)C)CC(C)C)C(=O)Nc1ccc(C)cc1C (configuration not stated)", "label 0"),
    ("CN(C)CC1CCCc2ccccc2C1=O (configuration not stated)", "label 0"),
    ("CCCOC(=O)c1cc(O)c(O)c(O)c1 [PROPYL GALLATE]", "label 0"),
    ("CCOC(=O)N1CCc2cc(OC)c(OC)c3c2c1cc1cc(OC)c(OC)cc13", "label 0"),
    ("S=c1nc(Nc2ccc(Br)cc2)c2c3c(sc2[nH]1)CN(N1CCc2c(sc4[nH]c(=S)nc(Nc5ccc(Br)cc5)c24)C1)CC3", "label 0"),
    ("CCc1n[nH]c(=O)n1/N=C(\\C)c1ccccc1", "label 0"),
    ("CCC(=O)NC(OCC1(CC)COC1)(C(F)(F)F)C(F)(F)F", "label 0"),
    ("Cc1cc(-c2cc(C(C)(C)C)c(O)c(C(C)(C)C)c2)c(C)cc1-c1cc(C(C)(C)C)c(O)c(C(C)(C)C)c1", "label 0"),
    ("N/N=C1\\C(=O)N(C2CCCCCC2)C(=O)C1C(=O)NC1CCCCCC1 (configuration not stated)", "label 0"),
    ("CN(C)c1cccc(F)c1C(=O)NC(=O)Nc1ccc(Cl)cc1", "label 0"),
    ("COc1ccc2c(c1)C1c3ccccc3CCN1CCC2 (configuration not stated)", "label 0"),
    ("O=c1cc(/C=C/c2ccc(O)c(O)c2)cc(/C=C/c2ccc(O)c(O)c2)o1", "label 0"),
    ("Oc1c(C(O)c2ccccn2)ccc2ccccc12 (configuration not stated)", "label 0"),
    ("CCCCC/C=C1\\CCC(CN2CCOCC2)C1=O (configuration not stated)", "label 0"),
    ("OC1(C(Sc2ccccc2)Sc2ccccc2)CCCCCC1", "label 0"),
    ("COC(=O)C(C(=O)C(=O)Nc1ccccc1C(C)=O)c1nc2ccc(Cl)cc2nc1O (configuration not stated)", "label 0"),
    ("Cc1cc2c(=O)cc(-c3ccc(Cl)c(Cl)c3)oc2c(C(=O)O)c1C", "label 0"),
    ("O=C(O)[C@H]1CCCN1CP(=O)(O)CN1CCC[C@@H]1C(=O)O", "label 0"),
    ("CN(CCC(=O)O)C1=Nc2ccc(Cl)cc2C(c2ccccc2)=[N+]([O-])C1", "label 0"),
    ("Nc1c(Cl)ncnc1NCC1(CO)CCC1", "label 0"),
    ("CCCCCCCCCC(=O)NC(CCC(=O)N(CCNC(=O)c1nc(-c2ccccc2)oc1-c1ccccc1)Cc1ccccc1)C(=O)O (configuration not stated)", "label 0"),
    ("CC(CCC[C@H](C)CO)[C@H]1[C@@H](O)C(O)C2[C@@H]3C[C@@H](O)C4(O)C[C@@H](O)CC[C@]4(C)C3CC[C@@]21C (some centres not stated)", "label 0"),
]
